- Target system: secretory phospholipase A2 (sPLA2) (Homo sapiens)
- Sequence: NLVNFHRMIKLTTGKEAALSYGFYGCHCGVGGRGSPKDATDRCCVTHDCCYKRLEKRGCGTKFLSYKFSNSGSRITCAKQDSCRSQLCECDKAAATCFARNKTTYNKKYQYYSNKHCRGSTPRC
- Assay procedure: filter
- Recorded conditions: random pool; text of Example 2 gives 240 nM; TBSC, 37 C
Reported endpoint: pKd
By convention, pKd is the negative base-10 log of a molar concentration.

In: What pKd value was documented for this sequence, GGGAGCUCAGAAUAAACGCUCAANNNNNNNNNNNNNNNNNNNNNNNNNNNNNNUUCGACAUGAGGCCCGGAUCCGGC [30N1 random RNA] ?
Out: 6.44

----------
- Target system: secretory phospholipase A2 (sPLA2) (Homo sapiens) (UniProt P14555)
- Sequence: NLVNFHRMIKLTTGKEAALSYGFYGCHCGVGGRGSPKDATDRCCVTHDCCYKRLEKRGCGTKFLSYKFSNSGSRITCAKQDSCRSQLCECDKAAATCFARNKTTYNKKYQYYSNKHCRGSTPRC
- Assay procedure: filter
- Recorded conditions: biphasic, Kd2 420 nM, mole fraction 0.40; TBSC, 37 C
Reported endpoint: pKd
# pKd is unitless: minus log10 of the molar concentration; print number only

In: // pKd lookup, key: GGGAGCUCAGAAUAAACGCUCAAGANCUCUGCUUACAGCCCGGCUGGGACACUUCGACAUGAGGCCCGGAUCCGGC [75t (75)]
Out: 9.05

----------
- Target system: basic fibroblast growth factor (bFGF) (Homo sapiens)
- Assay procedure: filter
- Recorded conditions: random pool; TBSC
Reported endpoint: Kd (µM)
Lab book: enter the figure in µM, no units written.

In: Quick one: Kd for GGGAGCUCAGAAUAAACGCUCAANNNNNNNNNNNNNNNNNNNNNNNNNNNNNNUUCGACAUGAGGCCCGGAUCCGGC [30N1 random RNA] ?
Out: 0.27

----------
- Test system: immunoglobulin G (IgG) (Homo sapiens)
- Assay procedure: filter
- Recorded conditions: 2'-NH2 all C and U; random pool; TBSC
pKd: −log10 of the molar value.
Reported endpoint: pKd

In: Give the reported pKd for GGGAAAAGCGAAUCAUACACAAGANNNNNNNNNNNNNNNNNNNNNNNNNNNNNNNNNNNNNNNNNNNNNNNNNNGCUCCGCCAGAGACCAACCGAGAA [50N9 random RNA] (system: immunoglobulin G (IgG) (Homo sapiens)).
Out: < 5.30

----------
- Target system: C1q (printed Clq) (Homo sapiens) (UniProt P02745+P02746+P02747)
- Sequence (P02745 23-245, chain 1 of 3): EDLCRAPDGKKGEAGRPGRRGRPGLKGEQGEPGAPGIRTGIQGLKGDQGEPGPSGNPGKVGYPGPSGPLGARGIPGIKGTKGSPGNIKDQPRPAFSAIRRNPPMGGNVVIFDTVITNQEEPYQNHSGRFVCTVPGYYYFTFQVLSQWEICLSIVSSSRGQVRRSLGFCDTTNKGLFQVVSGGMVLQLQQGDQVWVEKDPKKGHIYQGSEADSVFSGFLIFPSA
- Sequence (P02746 28-253, chain 2 of 3): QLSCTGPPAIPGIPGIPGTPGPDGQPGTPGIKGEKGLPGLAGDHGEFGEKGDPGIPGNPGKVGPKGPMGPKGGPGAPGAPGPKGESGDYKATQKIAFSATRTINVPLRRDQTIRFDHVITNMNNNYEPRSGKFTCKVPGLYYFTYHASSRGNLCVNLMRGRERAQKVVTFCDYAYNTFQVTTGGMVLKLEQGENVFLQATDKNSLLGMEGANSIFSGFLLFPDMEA
- Sequence (P02747 29-245, chain 3 of 3): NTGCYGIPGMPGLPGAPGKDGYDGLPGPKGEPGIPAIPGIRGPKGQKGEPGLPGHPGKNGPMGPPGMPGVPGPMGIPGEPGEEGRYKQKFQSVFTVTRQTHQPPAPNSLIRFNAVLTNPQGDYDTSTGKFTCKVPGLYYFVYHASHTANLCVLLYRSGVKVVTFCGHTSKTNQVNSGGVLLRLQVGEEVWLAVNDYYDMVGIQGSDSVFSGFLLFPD
- Assay procedure: filter
- Recorded conditions: 2'-NH2 all C and U; random pool; TBSC
Reported endpoint: pKd
Reminder that pKd is minus the log10 of a molar concentration.

In: Value lookup for pKd; key = GGGAAAAGCGAAUCAUACACAAGANNNNNNNNNNNNNNNNNNNNNNNNNNNNNNNNNNNNNNNNNNNNNNNNNNGCUCCGCCAGAGACCAACCGAGAA [50N9 random RNA]
Out: 6.00

----------
- Target system: basic fibroblast growth factor (bFGF) (Homo sapiens) (UniProt P09038)
- Sequence (P09038 143-288): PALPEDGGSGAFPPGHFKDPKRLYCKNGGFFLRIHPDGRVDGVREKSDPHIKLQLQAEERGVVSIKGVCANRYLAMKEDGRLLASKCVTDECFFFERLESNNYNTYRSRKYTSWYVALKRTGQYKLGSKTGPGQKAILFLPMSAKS
- Assay procedure: filter
- Recorded conditions: 2'-NH2 all C and U; random pool; TBSC
Reported endpoint: Kd (nM)
Give the value, in units of nM, as a plain number.

In: Return reported Kd; argument: GGGAAAAGCGAAUCAUACACAAGANNNNNNNNNNNNNNNNNNNNNNNNNNNNNNNNNNNNNNNNNNNNNNNNNNGCUCCGCCAGAGACCAACCGAGAA [50N9 random RNA]
Out: 170

----------
- Target system: lysozyme (egg white) (Gallus gallus) (UniProt P00698)
- Sequence (P00698 19-147): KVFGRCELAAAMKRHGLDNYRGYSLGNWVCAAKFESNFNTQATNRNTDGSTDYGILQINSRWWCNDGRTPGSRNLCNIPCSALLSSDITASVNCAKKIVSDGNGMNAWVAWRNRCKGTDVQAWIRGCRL
- Assay procedure: filter
- Recorded conditions: random pool; TBSC
Reported endpoint: pKd
On this scale, pKd is minus log10 of a concentration expressed in M (mol/L).

In: What does the record list as pKd for GGGAGCUCAGAAUAAACGCUCAANNNNNNNNNNNNNNNNNNNNNNNNNNNNNNUUCGACAUGAGGCCCGGAUCCGGC [30N1 random RNA] ?
Out: 5.78

----------
- Target system: pancreatic phospholipase A2 (bpPLA2) (Bos taurus) (UniProt P00593)
- Sequence (P00593 23-145): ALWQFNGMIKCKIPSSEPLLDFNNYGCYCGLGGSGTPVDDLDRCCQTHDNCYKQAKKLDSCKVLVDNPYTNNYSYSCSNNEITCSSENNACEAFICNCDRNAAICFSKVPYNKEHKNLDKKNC
- Assay procedure: filter
- Recorded conditions: random pool; TBSC
Reported endpoint: Kd (µM)
Only the number, expressed in µM, is required.

In: // Kd lookup, key: GGGAGCUCAGAAUAAACGCUCAANNNNNNNNNNNNNNNNNNNNNNNNNNNNNNUUCGACAUGAGGCCCGGAUCCGGC [30N1 random RNA]
Out: 22.5

----------
- Tested on: immunoglobulin G (IgG) (Homo sapiens)
- Assay procedure: filter
- Recorded conditions: 2'-NH2 all C and U; specificity control; TBSC
pKd: −log10 of the molar value.
Reported endpoint: pKd

In: Param readout = pKd; param system = immunoglobulin G (IgG) (Homo sapiens); param query = GGGAAAAGCGAAUCAUACACAAGACCGGCCGGCGCCAUAGCCGAGAUCCGAGGUGUUGAACGAUAACUCGGUGCUCCGCCAGAGACCAACCGAGAA [NN19] ; response: value
Out: < 5.30

----------
- Target system: neutrophil elastase (Homo sapiens) (UniProt P08246)
- Sequence: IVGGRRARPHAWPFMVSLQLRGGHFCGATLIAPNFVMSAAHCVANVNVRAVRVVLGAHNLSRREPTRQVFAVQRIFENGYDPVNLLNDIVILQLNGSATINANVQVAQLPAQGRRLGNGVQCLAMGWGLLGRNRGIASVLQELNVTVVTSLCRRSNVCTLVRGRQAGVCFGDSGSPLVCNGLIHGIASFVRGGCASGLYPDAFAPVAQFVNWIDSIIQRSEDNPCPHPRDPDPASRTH
- Assay procedure: filter
- Recorded conditions: 2'-NH2 all C and U; random pool; TBSC
Reported endpoint: Kd (nM)
Numeric answer only, unit nM assumed.

In: Quick one: Kd of GGGAAAAGCGAAUCAUACACAAGANNNNNNNNNNNNNNNNNNNNNNNNNNNNNNNNNNNNNNNNNNNNNNNNNNGCUCCGCCAGAGACCAACCGAGAA [50N9 random RNA] ?
Out: 70

----------
- Target system: secretory phospholipase A2 (sPLA2) (Homo sapiens)
- Sequence: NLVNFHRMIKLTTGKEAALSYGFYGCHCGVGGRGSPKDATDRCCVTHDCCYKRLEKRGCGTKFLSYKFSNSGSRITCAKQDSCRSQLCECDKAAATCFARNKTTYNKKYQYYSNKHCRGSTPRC
- Assay procedure: filter
- Recorded conditions: 2'-F all C and U; random 2'-F pool; TBSC, 37 C
Reported endpoint: Kd
Reply with the number and its unit after it.

In: So what does the record say about Kd for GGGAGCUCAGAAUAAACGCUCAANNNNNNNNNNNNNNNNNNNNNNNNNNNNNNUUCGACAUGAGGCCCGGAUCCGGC [30N1F random RNA] ?
Out: 35 nM

----------
- Target system: secretory phospholipase A2 (sPLA2) (Homo sapiens) (UniProt P14555)
- Sequence: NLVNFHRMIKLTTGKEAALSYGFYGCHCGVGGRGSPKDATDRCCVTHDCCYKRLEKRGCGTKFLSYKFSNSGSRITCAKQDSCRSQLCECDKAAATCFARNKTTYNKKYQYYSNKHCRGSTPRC
- Assay procedure: filter
- Recorded conditions: 2'-NH2 all C and U; random starting pool; TBSC, 37 C
Reported endpoint: Kd
// return the numeric value with its unit appended

GGGAGGACGAUGCGGNNNNNNNNNNNNNNNNNNNNNNNNNNNNNNNNNNNNNNNNNNNNNNNNNNCAGACGACUCGCCCGA [50N7 random RNA]; 71 nM

In: Can you look up the measured Kd of GGGAAAAGCGAAUCAUACACAAGANNNNNNNNNNNNNNNNNNNNNNNNNNNNNNNNNNNNNNNNNNNNNNNNNNGCUCCGCCAGAGACCAACCGAGAA [50N9 random RNA] for me?
Out: 48 nM

----------
- Test system: immunoglobulin G (IgG) (Homo sapiens)
- Assay procedure: filter
- Recorded conditions: 2'-NH2 all C and U; specificity control, like random RNA; TBSC
Reported endpoint: Kd (µM)
# output: bare number, implied unit µM

In: // lookup Kd for GGGAAAAGAAGACCGGCCGGCGCCAUAGCCGAGAUCCGAGGUGUUGCCGAGAA [NN19.15]
Out: 4.3
